Listed here are compounds together with their documented pIC50.
Assay: Cytotoxicity against human BGC823 cells by MTT assay
Assay type: functional, cell-based
Details: BGC-823
pIC50: −log10 of the molar value.

A selection of reference data follows.
Challenge: Specify pIC50 for COc1cc(O)c2c(=O)oc3c(O)c(OC)c(Cl)c(C)c3c2c1 and stop.
Response given: < 5.00

Challenge: Identify the reported pIC50 for the following entry. Cc1c(Cl)c(O)cc2oc(=O)c3c(O)cc(O)cc3c12
Response given: < 5.00

Challenge: Please supply the value of reported pIC50 for the item Cc1cc(O)cc2oc(=O)c3c(O)cc(O)cc3c12 [ALTERNARIOL]
Response given: < 5.00

Challenge: Answer with the recorded pIC50 for the compound listed here: CC(=O)O[C@H]1C(=O)[C@@]2(C)[C@H]([C@H](OC(=O)c3ccccc3)[C@]3(O)C[C@H](OC(=O)[C@H](O)[C@@H](NC(=O)c4ccccc4)c4ccccc4)C(C)=C1C3(C)C)[C@]1(OC(C)=O)CO[C@@H]1C[C@@H]2O [PACLITAXEL]
Response given: 8.48

Challenge: Input COc1cc(O)c2c(=O)oc3c(O)c(OC)cc(C)c3c2c1 , output reported pIC50.
Response given: < 5.00

Here's the next entry for you.
Challenge: Supply pIC50 value. Item: COC1=C(Cl)[C@](C)(O)c2c(oc(=O)c3c(O)cc(OC)cc23)C1=O
Response given: 5.11

---

// reported IC50 per item
Test: Cytotoxicity against human A375 cells by MTT assay
Format: functional, cell-based
Conditions: A-375

Challenge: Provide IC50 value for the following compound: COc1cc(O)c2c(=O)oc3cc(O)cc(C)c3c2c1
Response given: > 50 µM

Challenge: Provide measured IC50 value, entry: COc1cc(O)c2c(=O)oc3cc(O)c(Cl)c(C)c3c2c1
Response given: > 50 µM

Challenge: Read off the recorded IC50 for COc1cc(O)c2c(=O)oc3c(c2c1)[C@@](C)(O)C[C@@H](OC)[C@@]31C[C@@H](O)C(=O)O1
Response given: > 50 µM

Challenge: Return the recorded IC50 value; entry: COC1=C[C@](C)(O)c2c(oc(=O)c3c(O)cc(OC)cc23)C1=O
Response given: > 50 µM

Challenge: Note down IC50 recorded for CC(=O)O[C@H]1C(=O)[C@@]2(C)[C@H]([C@H](OC(=O)c3ccccc3)[C@]3(O)C[C@H](OC(=O)[C@H](O)[C@@H](NC(=O)c4ccccc4)c4ccccc4)C(C)=C1C3(C)C)[C@]1(OC(C)=O)CO[C@@H]1C[C@@H]2O [PACLITAXEL]
Response given: 0.022 µM

// below: IC50 requested for another compound
Challenge: Quote IC50 reported for COc1cc(O)c2c(=O)oc3c(c2c1)[C@@](C)(O)C(Cl)=C(O)C3=O please.
Response given: > 50 µM

---

System: Agrobacterium tumefaciens
Assay: Antibacterial activity against Agrobacterium tumefaciens ATCC 11158 by broth dilution colorimetric assay
Format: functional
The following compounds are listed with their measured MIC values.
Give the value, in units of µg/mL, as a plain number.

// below: answered compounds
Challenge: Answer with the recorded MIC for the compound listed here: Cc1cc(O)cc2oc(=O)c3c(O)cc(O)cc3c12 [ALTERNARIOL]
Response given: 50

Challenge: Please list MIC recorded for the compound Cc1c(Cl)c(O)cc2oc(=O)c3c(O)cc(O)cc3c12
Response given: 50

Challenge: Read the entry CN[C@@H]1[C@H](O[C@H]2[C@H](O[C@H]3[C@H](O)[C@@H](O)[C@H](N=C(N)N)[C@@H](O)[C@@H]3N=C(N)N)O[C@@H](C)[C@]2(O)C=O)O[C@@H](CO)[C@H](O)[C@H]1O.CN[C@@H]1[C@H](O[C@H]2[C@H](O[C@H]3[C@H](O)[C@@H](O)[C@H](N=C(N)N)[C@@H](O)[C@@H]3N=C(N)N)O[C@@H](C)[C@]2(O)C=O)O[C@@H](CO)[C@H](O)[C@H]1O.O=S(=O)(O)O.O=S(=O)(O)O.O=S(=O)(O)O [STREPTOMYCIN SULFATE] and write its reported MIC.
Response given: 5

Next:
Challenge: State, in one line, measured MIC of COc1cc(O)c2c(=O)oc3c(O)c(OC)c(Cl)c(C)c3c2c1
Response given: 50

Challenge: Quick one: give measured MIC for COc1cc(O)c2c(=O)oc3c(c2c1)[C@@](C)(O)C[C@@H](OC)[C@@]31C[C@@H](O)C(=O)O1
Response given: 100
